biological target: HMG-CoA synthase (Rattus norvegicus); construct: The livers from male Charles River CD rats (225-350 g) were homogenized; from tissue; host or cells: rat liver (male Charles River CD rats), 100,000 x g supernatant, ammonium sulfate and DEAE-52 fraction; assay: HMG-CoA Synthase Inhibition Assay; assay type: biochemical; details: Table I; rat liver enzyme, 1-[14C]-acetyl-CoA incorporation
measure: pIC50
// returns pIC50 (minus log10 of molar concentration), number only

Below, 5 compounds whose answers are already recorded.
{"compound": "CC[C@@H]1C(=O)N(S(=O)(=O)c2ccc(C)cc2)[C@@H]1COC(=O)c1cccc(NS(C)(=O)=O)c1 (relative stereo) [Table I b]", "pIC50": 7.60}
{"compound": "CCC[C@@H]1C(=O)N(S(=O)(=O)c2ccc(C)cc2)[C@H]1COC(=O)c1ccc(OC)cc1 (relative stereo) [Table I rr]", "pIC50": 7.46}
{"compound": "CC[C@@H]1C(=O)N(S(=O)(=O)c2ccc(C)cc2)[C@@H]1COC(=O)c1ccco1 [Table I gg]", "pIC50": 7.96}
{"compound": "CC[C@@H]1C(=O)N(S(=O)(=O)c2ccc(C)cc2)[C@@H]1COC(=O)c1cnc(OC)c(OC)c1 (relative stereo) [Table I oo]", "pIC50": 7.42}
{"compound": "CC[C@@H]1C(=O)N(S(=O)(=O)c2ccc(C)cc2)[C@@H]1COC(=O)c1ccco1 (relative stereo) [Table I g]", "pIC50": 8.10}

Input: Any idea what pIC50 was measured for CC[C@@H]1C(=O)N(S(=O)(=O)c2ccc(C)cc2)[C@@H]1COC(=O)c1ccc(OC)cc1 [Table I i] ?
Output: 7.52

Input: Requested read-out: pIC50. Entry: CC[C@@H]1C(=O)N(S(=O)(=O)c2ccc(C)cc2)[C@H]1COC(=O)c1ccc(OC)cc1 (relative stereo) [Table I tt]
Output: 6.77

---

Collected IC50 values appear next to each entry.
molecular target: HMG-CoA synthase (Rattus norvegicus, UniProt P17425); construct: The livers from male Charles River CD rats (225-350 g) were homogenized; from tissue; host or cells: rat liver (male Charles River CD rats), 100,000 x g supernatant, ammonium sulfate and DEAE-52 fraction; assay: HMG-CoA Synthase Inhibition Assay; format: biochemical; settings: Table V; rat liver enzyme, 1-[14C]-acetyl-CoA incorporation
Sequence (P17425 whole entry): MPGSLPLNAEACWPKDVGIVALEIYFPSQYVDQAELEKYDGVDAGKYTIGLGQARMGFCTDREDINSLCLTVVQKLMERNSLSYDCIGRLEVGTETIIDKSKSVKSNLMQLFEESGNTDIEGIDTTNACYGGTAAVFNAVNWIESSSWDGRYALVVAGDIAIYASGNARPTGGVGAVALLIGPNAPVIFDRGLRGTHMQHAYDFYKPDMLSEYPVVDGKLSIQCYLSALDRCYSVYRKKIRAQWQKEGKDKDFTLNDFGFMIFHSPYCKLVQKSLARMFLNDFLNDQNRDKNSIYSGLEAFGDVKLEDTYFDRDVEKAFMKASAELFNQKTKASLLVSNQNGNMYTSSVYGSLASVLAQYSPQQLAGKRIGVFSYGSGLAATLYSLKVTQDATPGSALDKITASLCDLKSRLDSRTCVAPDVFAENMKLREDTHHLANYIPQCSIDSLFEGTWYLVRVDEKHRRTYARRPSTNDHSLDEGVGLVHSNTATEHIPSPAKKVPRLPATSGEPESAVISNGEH
Hi! Could you send only the number? It should be in nM, unit omitted.

These recorded examples may help you get a feel for the data.
{"molecule": "CCC1C(=O)N(S(=O)(=O)c2ccc(C)cc2)C1C(C)Cc1ccccc1 (stereo not shown)", "target-system": "HMG-CoA synthase (Rattus norvegicus, UniProt P17425)", "observed-value": 175}
{"molecule": "CCC1C(=O)N(S(=O)(=O)c2ccc(C)cc2)C1C(C)OC(=O)c1ccc(OC)cc1 (stereo not shown)", "target-system": "HMG-CoA synthase (Rattus norvegicus, UniProt P17425)", "observed-value": 120}
{"molecule": "CC(=O)OCC(C)C1CC(=O)N1S(=O)(=O)c1ccc(C)cc1 (stereo not shown)", "target-system": "HMG-CoA synthase (Rattus norvegicus, UniProt P17425)", "observed-value": 290}
{"molecule": "CCC1C(=O)N(S(=O)(=O)c2ccc(C)cc2)C1C(OC(=O)c1ccc(OC)cc1)c1ccccc1 (stereo not shown)", "target-system": "HMG-CoA synthase (Rattus norvegicus, UniProt P17425)", "observed-value": 2000}
{"molecule": "CC[C@H]1C(=O)N(S(=O)(=O)c2ccc(C)cc2)[C@H]1CCc1ccccc1 (relative stereo)", "target-system": "HMG-CoA synthase (Rattus norvegicus, UniProt P17425)", "observed-value": 86}

Input: Given the entry CC(=O)OC(c1ccccc1)C(C)C1CC(=O)N1S(=O)(=O)c1ccc(C)cc1 (stereo not shown) , report its measured IC50.
Output: 490

Input: Sample CC[C@H]1C(=O)N(S(=O)(=O)c2ccc(C)cc2)[C@H]1CNc1ccc(C(=O)O)cc1 (relative stereo) — what was its IC50?
Output: 9900
